System: SK-MEL-2 melanoma
Assay Details: NCI tumour cell line growth inhibition, 48 h
Where a SMILES comes first, the peptide text is derived from it. The star is where a group is joined. Boc = CC(C)(C)OC(=O)*; OBn = c1ccc(CO*)cc1
For each of the compounds below, state its TGI.

Consider the worked cases shown below.
// TGI (SK-MEL-2 melanoma) for Cc1ccc2c(c1)-c1c(C#N)c(N)nc(-c3ccccc3)c1CCS2(=O)=O = > 100 µM

// TGI (SK-MEL-2 melanoma) for COC1=CC(=O)c2c(O)c3c(c(O)c2C1=O)C=C(C)OC3O (centres undefined) = 5.19 µM

// TGI (SK-MEL-2 melanoma) for CCC(/C=C/c1ccccc1)=N\Nc1ccc(Cl)c(Cl)c1 = 40.9 µM

// TGI (SK-MEL-2 melanoma) for FC(F)(F)c1ccc(-c2cnc(Cl)nc2NCc2cc(C(F)(F)F)cc(C(F)(F)F)c2)cc1 = 5.28 µM

// TGI (SK-MEL-2 melanoma) for CN(C(=O)c1ccncc1)c1ccccc1 = > 100 µM

Give me TGI for each of these compounds, listed below.
1. CC(NC(=O)C(Cc1ccccc1)NC(=O)C(Cc1ccccc1)NC(=O)OC(C)(C)C)C(=O)OCc1ccccc1 (stereo not drawn) (Boc-Phe-Phe-Ala-OBn; configuration not given here)
2. CCN(CC)CC(C(=O)Nc1c(C)cccc1C)/C(C)=N\NC(=O)c1ccncc1 (centres undefined)
3. CC1(C)CC[C@]2(C(=O)N3CCOCC3)CC[C@]3(C)C(=CC[C@@H]4[C@@]5(C)C/C(=C/c6ccncc6)C(=O)C(C)(C)[C@@H]5CC[C@]43C)[C@@H]2C1

1. > 100 µM
2. > 100 µM
3. 7.27 µM

Give me TGI for each of these compounds, listed below.
1. O=C(COc1cccc(/C=C2\COc3ccc(Cl)cc3C2=O)c1)c1ccc(Cl)cc1
2. C/C=C/[C@@H]1OC(=O)C2=C[C@@H](O)[C@@H](/C=C/C)O[C@H]21
3. C=C1CCC2[C@@H](CCC3[C@]2(C)CCC[C@]3(C)C(=O)OC)C1CCO (some centres undefined)
4. Nc1c(C(=O)Nc2ccccc2)sc2nc3c(cc12)CN(Cc1ccccc1)CC3

1: 21.1 µM; 2: > 58.6 µM; 3: 36.6 µM; 4: > 100 µM

----------
For each of the compounds below, state its TGI.
System: M14 melanoma
Assay Details: NCI tumour cell line growth inhibition, 48 h

Looking up CC(C)(C)OC(=O)N/N=C(/N)Cc1ccccc1 , I see its TGI listed as > 100 µM

Looking up COc1cc(/C=C2\C(=O)N(Cc3ccccc3)C(c3ccccc3)S2(=O)=O)cc(OC)c1OC (stereo not drawn) , I see its TGI listed as > 100 µM

Further cases:
Looking up CCOC(=O)/C=C(\C(=O)OCC)n1ccc(=O)n(CC(=O)OCC)c1=O , I see its TGI listed as 5.48 µM

----------
For each of the molecules below, state its TGI.
Test system: SNB-19 CNS
Assay Details: NCI tumour cell line growth inhibition, 48 h

Consider the worked cases shown below.
Looking up CN(C)CCn1c(=O)c2ccc3c4c(nn3CCN(C)C)c3cc(O)ccc3n(c1=O)c24 , I see its TGI listed as 1 µM

Looking up COc1cc(C2CC(c3ccc(N(C)C)cc3)=NN2C(C)=O)cc(OC)c1OC (stereo not drawn) , I see its TGI listed as > 100 µM

Give me TGI for each of these molecules, listed below.
1. CCN1C(=O)N(CC)C2C1NN=c1s/c(=C\c3cc4ccccc4[nH]3)c(=O)n12 (stereo not drawn)
2. C=CCNC(=O)NCCCC(NC(C)=O)C(=O)NCc1ccccc1 (stereo not drawn)
3. CC(C)(C)OC(=O)N(CCNS(=O)(=O)c1cccc2cnccc12)CCC(=O)ON1C(=O)CCC1=O
4. COc1cc(C)c(O)c(C(=O)O)c1
5. COC(=O)C1=C(C(=O)OC)SC(=C(N=Nc2ccccc2)c2ccccc2)S1
6. CCOC(=O)/C=C(\C(=O)OCC)n1ccc(=O)n(CC(=O)OCC)c1=O
7. Cc1n[nH]c(=O)n1/N=C\CC/C=N\n1c(C)n[nH]c1=O

["15.8 µM", "> 100 µM", "> 100 µM", "> 100 µM", "> 100 µM", "36.7 µM", "> 100 µM"]

----------
Tested on: BT-549 breast
Assay Details: NCI tumour cell line growth inhibition, 48 h
Quantity Name: GI50

Consider the worked cases shown below.
// GI50 (BT-549 breast) for Cn1ccnc1C(=O)/C=C/c1ccc(CC(=O)Nc2ccc(C(F)(F)F)cc2)cc1 = 2.56 µM

// GI50 (BT-549 breast) for CCNCCNc1cc(C2CCCCC2)c(C#N)c2nc3ccccc3n12 = 1.77 µM

// GI50 (BT-549 breast) for C/C=C/[C@@H]1OC(=O)C2=C[C@@H](O)[C@@H](/C=C/C)O[C@H]21 = 2.31 µM

// GI50 (BT-549 breast) for COc1cc(C2CC(c3ccc(N(C)C)cc3)=NN2C(C)=O)cc(OC)c1OC (stereo not drawn) = 2.53 µM

// GI50 (BT-549 breast) for O=C(c1cccnc1)c1cc(-c2ccccn2)c(=O)n2ccccc12 = > 100 µM

Give me GI50 for each of these compounds, listed below.
1. Nc1n[nH]c2cccc(C#Cc3cccc(C(=O)Nc4cc(CN5CCOCC5)cc(C(F)(F)F)c4)c3)c12
2. CC(=O)O[C@H]1CC[C@@]2(C)[C@@H](CC[C@@H]3[C@@H]2CC[C@]2(C)C=C(C=O)C[C@@H]32)C1
3. CCCc1cc(=O)n2c(C(=O)Nc3ccccc3OC)c(C(=O)Nc3ccc(F)cc3)sc2n1

1. 4.33 µM
2. 12.1 µM
3. 31 µM

----------
Tested on: A498 renal
Assay Details: NCI tumour cell line growth inhibition, 48 h
For each of the compounds below, state its TGI.

Consider the worked cases shown below.
Looking up Cc1ccc(S(=O)(=O)Nn2c(S)c(C#N)c(-c3ccc([N+](=O)[O-])cc3)c(C#N)c2=O)cc1 , I see its TGI listed as > 100 µM

Looking up C[C@]12CCc3sc(Nc4ccc(O)cc4)nc3C1=CC[C@@H]1[C@@H]2CC[C@]2(C)C(=O)CC[C@@H]12 , I see its TGI listed as 80.6 µM

Looking up COC(C)(C)CCc1[nH]c2ccccc2c1CC(=O)NCCc1cncn1C , I see its TGI listed as > 100 µM

Looking up O=C(c1cccnc1)c1cc(-c2ccccn2)c(=O)n2ccccc12 , I see its TGI listed as > 100 µM

Give me TGI for each of these compounds, listed below.
1. COC(=O)C1(Cc2ccc3c(c2)CCC3)Cc2ccc3c(c2C1)CCC3 (configuration not stated)
2. CCOc1cc2c(cc1OC(C)=O)C(=O)CC[C@H]1C3CC[C@H](OC(C)=O)[C@@]3(C)CC[C@H]21 (some centres not stated)
3. O=C(NCCc1ccccc1)c1c(O)c2ccccc2[nH]c1=O
4. O=C1[C@@H]2C[C@@H](O)CN2C(=O)c2ccccc2N1CCCO
5. CCOP(=O)(OCC)C1=C(c2ccccc2)OC(N)=C(C#N)C1c1ccc(Cl)cc1 (configuration not stated)
6. CC(C)(C)[Si](C)(C)OCCOCn1cc(F)c(=O)[nH]c1=O
7. O=C1/C(=C/c2ccccc2)CCC/C1=C\c1ccc(O)c(CN2CCCCC2)c1
8. COc1cc(C2C3=C(COC3=O)Nc3cc4c(cc32)CCC4)cc2c1OCO2 (configuration not stated)

72.2 µM
> 100 µM
> 100 µM
> 100 µM
> 100 µM
> 100 µM
12.5 µM
0.0964 µM

----------
System: SF-268 CNS
Assay Details: NCI tumour cell line growth inhibition, 48 h
For each of the compounds below, state its TGI.

Consider the worked cases shown below.
Looking up CCOc1cc2c(cc1OC(C)=O)C(=O)CC[C@H]1C3CC[C@H](OC(C)=O)[C@@]3(C)CC[C@H]21 (stereo not given in full) , I see its TGI listed as > 100 µM

Looking up O=C(Cc1ccccc1)NCCCN(CCCCN(CCCNC(=O)Cc1ccccc1)C(=O)OCc1ccccc1)C(=O)OCc1ccccc1 , I see its TGI listed as > 100 µM

Looking up CC#CC1C(OC(=O)c2ccccc2)CCCC1(CI)N=[N+]=[N-] (stereo not given) , I see its TGI listed as > 100 µM

Give me TGI for each of these compounds, listed below.
1. CCOc1cc2c(cc1O)/C(=N/NS(=O)(=O)c1ccc(C)cc1)C[C@@H]1[C@@H]2CC[C@]2(C)[C@@H](O)CC[C@@H]12
2. Cn1c(=O)c2c(ncn2CCCCOc2ccc3c(c2)[n+]([O-])nc(N)[n+]3[O-])n(C)c1=O

1: > 100 µM; 2: > 100 µM

Give me TGI for each of these compounds, listed below.
1. O=C(CCCSc1nc(-c2ccccc2)cc(-c2ccc(Cl)cc2)n1)NO
2. Cn1cnc(N2CCCC2)c(C#N)c1=O
3. O=C(O)CC1OCC=C2CN3CCC45C6=CC(=O)C(=O)C([N+](=O)[O-])=C6NC4C1C2CC35 (stereo not given)
4. CC(=O)N(CN1C(=O)CCC1C(=O)O)c1cccc(O)c1 (stereo not given)
5. CCCCOCCOC1=CC(=O)c2c(O)ccc(O)c2C1=O

1. 7.14 µM
2. > 100 µM
3. > 100 µM
4. > 100 µM
5. 3.65 µM

Give me TGI for each of these compounds, listed below.
1. c1ccc(C2OCCO2)c(OCCOc2cc(OCCOc3ccccc3C3OCCO3)c(OCCOc3ccccc3C3OCCO3)cc2OCCOc2ccccc2C2OCCO2)c1
2. C=CC1C(OC2OC(CO)C(O)C(O)C2O)OC=C(C(=O)OC)C1CC=O (stereo not given)
3. CC(C)C/C=C/C1=NN(c2cccc(S(=O)(=O)O)c2)C2(C1)SCC(=O)N2c1nc2ccccc2s1 (stereo not given)
4. CC(C)N1C(NNC(=O)c2cnccn2)=NS(=O)(=O)c2ccccc21

["66.5 µM", "> 100 µM", "> 100 µM", "> 100 µM"]

Give me TGI for each of these compounds, listed below.
1. C=CCNC(=O)NCCCC(NC(C)=O)C(=O)NCc1ccccc1 (stereo not given)
2. O=C1C(=C(I)I)c2ccccc2-c2ccccc21
3. CN1CCN(c2cc(-c3cc4ccccc4o3)oc(=O)c2C#N)CC1
4. COC(=O)C1(Cc2ccc3c(c2)CCC3)Cc2ccc3c(c2C1)CCC3 (stereo not given)
5. Cc1ccc2c(c1)C(=O)c1c-2n(CCCBr)c(=O)c2cc([N+](=O)[O-])ccc12

1. > 100 µM
2. 20.4 µM
3. > 100 µM
4. > 100 µM
5. > 100 µM

Looking up CC(=O)O[C@H]1CCn2c3c(c(C)c21)C(=O)C(N1CC1)=C(C)C3=O , I see its TGI listed as > 10 µM
